Attribution: ChEMBL document CHEMBL4706485

- Test system: MCF7
- protocol details: Induction of apoptosis in human MCF7 cells assessed as late apoptotic cells at 10 uM after 12 hrs by annexinV-FITC/PI staining based flow cytometric analysis (reference value: 0.9 to 1.9%)
- Type: functional
Square brackets hold non-standard residues; d marks the D form. Peptide text beside a SMILES is read from it. Hyp = O=C(O)[C@@H]1C[C@@H](O)CN1; Ahx = NCCCCCC(=O)O
// criterion not met strictly below 7% in Activity; criterion met otherwise

# example entries with known answers
CC[C@H](C)[C@H](NC(=O)[C@H](Cc1ccc(O)cc1)NC(=O)[C@@H]1C[C@@H](O)CN1C(=O)[C@H](C)NC(=O)[C@H](CC(C)C)NC(=O)CCCCCNC(=O)[C@H](CCC(N)=O)NC(=O)[C@H](CC(C)C)NC(=O)[C@H](CC(C)C)NC(=O)[C@H](CCCNC(=N)N)NC(=O)[C@H](Cc1c[nH]cn1)NC(=O)[C@H](CC(C)C)NC(=O)[C@@H](NC(=O)[C@H](CCCCN)NC(=O)[C@@H](N)Cc1c[nH]cn1)[C@@H](C)CC)C(N)=O (H-HKILHRLLQ[Ahx]LA[Hyp]YI-NH2)
criterion not met
CC[C@H](C)[C@H](NC(=O)[C@H](Cc1ccc(O)cc1)NC(=O)[C@@H]1C[C@@H](O)CN1C(=O)[C@H](C)NC(=O)[C@H](CC(C)C)NC(=O)CCCCCNC(=O)[C@H](CCC(N)=O)NC(=O)C(CC(C)(C)C)NC(=O)C(CC(C)(C)C)NC(=O)[C@H](CCCNC(=N)N)NC(=O)[C@@H]1CNC(=O)C(N[C@@H](CCCNC(=N)N)C(N)=O)CC(=O)N[C@@H]([C@@H](C)CC)C(=O)NC(CC(C)(C)C)C(=O)N1)C(N)=O (stereo partly specified)
criterion met
CC[C@H](C)[C@H](NC(=O)[C@H](Cc1ccc(O)cc1)NC(=O)[C@@H]1C[C@@H](O)CN1C(=O)[C@H](C)NC(=O)[C@H](CC(C)C)NC(=O)CCCCCNC(=O)[C@H](CCC(N)=O)NC(=O)[C@H](CC(C)C)NC(=O)C(CC(C)(C)C)NC(=O)[C@H](CCCNC(=N)N)NC(=O)[C@@H]1CNC(=O)C(N[C@@H](CCCNC(=N)N)C(N)=O)CC(=O)N[C@@H]([C@@H](C)CC)C(=O)N[C@@H](CC(C)C)C(=O)N1)C(N)=O (stereo partly specified)
criterion met
CC[C@H](C)[C@H](NC(=O)[C@H](Cc1ccc(O)cc1)NC(=O)[C@@H]1C[C@@H](O)CN1C(=O)[C@H](C)NC(=O)[C@H](CC(C)C)NC(=O)CCCCCNC(=O)[C@H](CCC(N)=O)NC(=O)C(CC(C)(C)C)NC(=O)[C@H](CC(C)C)NC(=O)[C@H](CCCNC(=N)N)NC(=O)[C@@H]1CNC(=O)C(N[C@@H](CCCNC(=N)N)C(N)=O)CC(=O)N[C@@H]([C@@H](C)CC)C(=O)N[C@@H](CC(C)C)C(=O)N1)C(N)=O (stereo partly specified)
criterion met

Q: Entry CC[C@H](C)[C@H](NC(=O)[C@H](Cc1ccc(O)cc1)NC(=O)[C@@H]1C[C@@H](O)CN1C(=O)[C@H](C)NC(=O)[C@H](CC(C)C)NC(=O)CCCCCNC(=O)[C@H](CCC(N)=O)NC(=O)[C@H](CC(C)C)NC(=O)[C@H](CC(C)C)NC(=O)[C@H](CCCNC(=N)N)NC(=O)[C@@H]1CNC(=O)C(N[C@@H](CCCNC(=N)N)C(N)=O)CC(=O)N[C@@H]([C@@H](C)CC)C(=O)N[C@@H](CC(C)C)C(=O)N1)C(N)=O (stereo partly specified) : is its Activity no less than 7%?
Result: criterion not met

====

- protocol details: Drug uptake in human MCF7 cells at 10 uM FITC labelled form of compound after 12 hrs by flow cytometric analysis
- Assay type: ADME, cell-based
- condition: mcf7, 12 h
Square brackets hold non-standard residues; d marks the D form. Peptide text beside a SMILES is read from it. Hyp = O=C(O)[C@@H]1C[C@@H](O)CN1; Ahx = NCCCCCC(=O)O
reported endpoint: Drug uptake

Known Drug uptake results, listed for orientation:
CC[C@H](C)[C@H](NC(=O)[C@H](Cc1ccc(O)cc1)NC(=O)[C@@H]1C[C@@H](O)CN1C(=O)[C@H](C)NC(=O)[C@H](CC(C)C)NC(=O)CCCCCNC(=O)[C@H](CCC(N)=O)NC(=O)C(CC(C)(C)C)NC(=O)C(CC(C)(C)C)NC(=O)[C@H](CCCNC(=N)N)NC(=O)[C@@H]1CNC(=O)C(N[C@@H](CCCNC(=N)N)C(N)=O)CC(=O)N[C@@H]([C@@H](C)CC)C(=O)NC(CC(C)(C)C)C(=O)N1)C(N)=O (stereo partly specified)
Active
CC[C@H](C)[C@H](NC(=O)[C@H](Cc1ccc(O)cc1)NC(=O)[C@@H]1C[C@@H](O)CN1C(=O)[C@H](C)NC(=O)[C@H](CC(C)C)NC(=O)CCCCCNC(=O)[C@H](CCC(N)=O)NC(=O)[C@H](CC(C)C)NC(=O)C(CC(C)(C)C)NC(=O)[C@H](CCCNC(=N)N)NC(=O)[C@@H]1CNC(=O)C(N[C@@H](CCCNC(=N)N)C(N)=O)CC(=O)N[C@@H]([C@@H](C)CC)C(=O)N[C@@H](CC(C)C)C(=O)N1)C(N)=O (stereo partly specified)
Active
CC[C@H](C)[C@H](NC(=O)[C@H](Cc1ccc(O)cc1)NC(=O)[C@@H]1C[C@@H](O)CN1C(=O)[C@H](C)NC(=O)[C@H](CC(C)C)NC(=O)CCCCCNC(=O)[C@H](CCC(N)=O)NC(=O)C(CC(C)(C)C)NC(=O)[C@H](CC(C)C)NC(=O)[C@H](CCCNC(=N)N)NC(=O)[C@@H]1CNC(=O)C(N[C@@H](CCCNC(=N)N)C(N)=O)CC(=O)N[C@@H]([C@@H](C)CC)C(=O)N[C@@H](CC(C)C)C(=O)N1)C(N)=O (stereo partly specified)
Active
CC[C@H](C)[C@H](NC(=O)[C@H](Cc1ccc(O)cc1)NC(=O)[C@@H]1C[C@@H](O)CN1C(=O)[C@H](C)NC(=O)[C@H](CC(C)C)NC(=O)CCCCCNC(=O)[C@H](CCC(N)=O)NC(=O)[C@H](CC(C)C)NC(=O)[C@H](CC(C)C)NC(=O)[C@H](CCCNC(=N)N)NC(=O)[C@@H]1CNC(=O)C(N[C@@H](CCCNC(=N)N)C(N)=O)CC(=O)N[C@@H]([C@@H](C)CC)C(=O)N[C@@H](CC(C)C)C(=O)N1)C(N)=O (stereo partly specified)
Active
CC[C@H](C)[C@H](NC(=O)[C@H](Cc1ccc(O)cc1)NC(=O)[C@@H]1C[C@@H](O)CN1C(=O)[C@H](C)NC(=O)[C@H](CC(C)C)NC(=O)CCCCCNC(=O)[C@H](CCC(N)=O)NC(=O)[C@H](CC(C)C)NC(=O)[C@H](CC(C)C)NC(=O)[C@H](CCCNC(=N)N)NC(=O)[C@@H]1CNC(=O)C(N[C@@H](CCCNC(=N)N)C(N)=O)CC(=O)N[C@@H]([C@@H](C)CC)C(=O)NC(CC(C)(C)C)C(=O)N1)C(N)=O (stereo partly specified)
Active

Q: Complete the entry with Drug uptake for CC[C@H](C)[C@H](NC(=O)[C@H](Cc1ccc(O)cc1)NC(=O)[C@@H]1C[C@@H](O)CN1C(=O)[C@H](C)NC(=O)[C@H](CC(C)C)NC(=O)CCCCCNC(=O)[C@H](CCC(N)=O)NC(=O)[C@H](CC(C)C)NC(=O)[C@H](CC(C)C)NC(=O)[C@H](CCCNC(=N)N)NC(=O)[C@H](Cc1c[nH]cn1)NC(=O)[C@H](CC(C)C)NC(=O)[C@@H](NC(=O)[C@H](CCCCN)NC(=O)[C@@H](N)Cc1c[nH]cn1)[C@@H](C)CC)C(N)=O (H-HKILHRLLQ[Ahx]LA[Hyp]YI-NH2)
Result: Active
